The measured values listed here are drawn from patent US7446195B2.

target: CDK-2 (Homo sapiens)
recorded-metric: IC50

Observe how each entry below is paired with its result.
| item-smiles | IC50 |
| --- | --- |
| COc1ccc(NC(=O)c2ccc(C(=O)Nc3ccc(OCCN(C)C)cc3)s2)c(C)c1 | ≥ 40 µM |
| CC(C)NC(=O)c1ccc(C(=O)Nc2ccc(-n3cncn3)cc2)s1 | ≥ 40 µM |
| COc1ccc(N(C)C(=O)c2ccc(C(=O)Nc3ccc(-n4cncn4)cc3)s2)c(C)c1 | 1 to 40 µM |

Q) Tell me the measured IC50 of `C[C@@H](NC(=O)c1ccc(C(=O)Nc2ccc(-n3cncn3)c(F)c2)o1)C1CCCCC1` , please.
A) 1 to 40 µM

Q) One more molecule: `O=C(NCCc1ccccc1)c1ccc(C(=O)Nc2ccc(-n3cncn3)cc2)s1`
A) ≥ 40 µM

---

target: CDK-2 (Homo sapiens, UniProt P24941)
pIC50: −log10 of the molar value.
List of pIC50 values.

Below: 2 compounds and their reported pIC50.
| compound | study-target | pIC50 |
| --- | --- | --- |
| COC[C@H](C)NC(=O)c1ccc(C(=O)Nc2ccc(-n3cncn3)cc2)s1 | CDK-2 (Homo sapiens, UniProt P24941) | ≤ 4.40 |
| COc1cccc(C2CCN(C(=O)c3ccc(C(=O)Nc4ccc(-n5cncn5)cc4)s3)C2)c1 (stereo not shown) | CDK-2 (Homo sapiens, UniProt P24941) | ≤ 4.40 |

Q) Quick one: pIC50 of `COc1ccc(NC(=O)c2ccc(C(=O)Nc3ccc(-c4nc[nH]n4)c(F)c3)o2)c(C)c1` ?
A) ≥ 6.00

---

This listing pairs molecules with measured IC50.
target: CDK-2 (Homo sapiens, UniProt P24941)

| item-smiles | obs-value |
| --- | --- |
| O=C(Nc1ccc(-n2cncn2)cc1)c1ccc(C(=O)N2CCc3ccccc3C2)s1 | 1 to 40 µM |
| Cc1cc(N2CCN(C)CC2)ccc1NC(=O)c1ccc(C(=O)Nc2ccc(-n3cncn3)cc2)s1 | ≤ 1 µM |
| COc1ccc(NC(=O)c2ccc(C(=O)Nc3ccc(-n4cncn4)cc3)o2)c(C)c1 | ≤ 1 µM |

Q) Request the reported IC50 associated with `COc1ccc(NC(=O)c2ccc(C(=O)Nc3ccc(-n4cncn4)cc3)s2)c(C(=O)O)c1`
A) 1 to 40 µM

Q) Same again, this time with `COc1ccc(C(=O)Nc2ccc(C(=O)Nc3ccc(-n4cncn4)cc3)o2)c(C)c1`
A) ≥ 40 µM

Q) Entry `O=C(Nc1ccc(-n2cncn2)cc1)c1ccc(C(=O)Nc2ccc3ncsc3c2)s1` please
A) ≥ 40 µM

Q) Try this molecule next: `O=C(Nc1ccc(-n2cncn2)c(F)c1)c1ccc(C(=O)Nc2ccccc2OCc2ccccc2)s1`
A) ≥ 40 µM

Q) Can you check `O=C(Nc1ccccc1)c1ccc(C(=O)Nc2ccc(-n3cncn3)cc2)s1` next?
A) ≥ 40 µM

---

// values below are IC50; system is CDK-2 (Homo sapiens)

# count of solved cases: 3
| compound | recorded-metric | obs-value |
| --- | --- | --- |
| Cc1cc(N2CCOCC2)ccc1NC(=O)c1ccc(C(=O)Nc2ccc(-n3cncn3)cc2)s1 [Compound 3] | IC50 | ≤ 1 µM |
| Cc1ccccc1C(=O)Nc1ccc(C(=O)Nc2ccc(-n3cncn3)cc2)o1 [Compound 184] | IC50 | ≥ 40 µM |
| O=C(Nc1ccc(-n2cncn2)cc1)c1ccc(C(=O)Nc2cccc(O)c2)s1 [Compound 163] | IC50 | ≥ 40 µM |

Q) Field: IC50 (CDK-2 (Homo sapiens)). Entry: CN1CCN(C(=O)c2ccc(C(=O)Nc3ccc(-n4cncn4)cc3)s2)CC1 [Compound 137]
A) ≥ 40 µM

Q) Record: Cc1cc(NC(=O)c2ccc(C(=O)Nc3ccc(-n4cncn4)cc3)s2)ccc1F [Compound 142]
A) ≥ 40 µM

Q) Same question for COc1ccc(NC(=O)c2ccc(C(=O)Nc3ccc4scnc4c3)s2)c(C)c1 [Compound 173] please.
A) ≥ 40 µM

Q) Lookup O=C(Nc1ccc(-n2cncn2)cc1)c1ccc(C(=O)NC2CCC2)s1 [Compound 82]
A) ≥ 40 µM

Q) Now this one: O=C(Nc1ccc(-n2cncn2)cc1)c1ccc(C(=O)Nc2ccccn2)s1 [Compound 90]
A) ≥ 40 µM

Q) What do we get for CNC(=O)c1ccc(C(=O)Nc2ccc(-n3cncn3)c(F)c2)o1 [Compound 215] ?
A) ≥ 40 µM

Q) How about CN(C)CCNC(=O)c1ccc(C(=O)Nc2ccc(-n3cncn3)c(F)c2)o1 [Compound 212] ?
A) ≥ 40 µM

Q) Also check O=C(Nc1ccc(C(=O)Nc2ccc(-n3cncn3)cc2)s1)c1ccncc1 [Compound 194]
A) ≥ 40 µM

Q) For COc1ccc(C(=O)Nc2ccc(C(=O)Nc3ccc(-n4cncn4)cc3)s2)cc1 [Compound 42] then?
A) 1 to 40 µM

Q) How about COc1ccc(NC(=O)c2ccc(C(=O)Nc3ccc(-c4cnco4)cc3)s2)c(C)c1 [Compound 131] ?
A) ≥ 40 µM

Q) Another compound to look at: Cc1cc(O)ccc1NC(=O)c1ccc(C(=O)Nc2ccc(-n3cncn3)cc2)s1 [Compound 33]
A) ≤ 1 µM
